Reported pIC50 by item:
target: Chk1 (Homo sapiens); construct: purchased Upstate Biotechnology; assay: Chk1 kinase assay: incorporation of γ-33P ATP into immobilized myelin basic protein; format: biochemical; conditions: Table 11; Chk1 only; read-out: Chk1 IC50
Sequence (O14757 whole entry): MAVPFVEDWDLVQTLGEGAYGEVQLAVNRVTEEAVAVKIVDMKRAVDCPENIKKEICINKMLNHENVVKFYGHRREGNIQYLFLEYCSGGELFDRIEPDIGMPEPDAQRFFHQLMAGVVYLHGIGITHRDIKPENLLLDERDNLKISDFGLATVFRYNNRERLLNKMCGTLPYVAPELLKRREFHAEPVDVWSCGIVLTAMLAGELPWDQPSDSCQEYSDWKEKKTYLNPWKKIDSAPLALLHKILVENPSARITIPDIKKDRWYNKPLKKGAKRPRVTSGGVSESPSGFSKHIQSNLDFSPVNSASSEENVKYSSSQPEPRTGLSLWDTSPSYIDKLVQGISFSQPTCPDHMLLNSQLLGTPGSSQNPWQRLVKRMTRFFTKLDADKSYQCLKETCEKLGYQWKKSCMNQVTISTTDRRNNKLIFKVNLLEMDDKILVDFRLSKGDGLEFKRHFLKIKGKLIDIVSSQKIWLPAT
pIC50: −log10 of the molar value.

Record excerpt, results attached:
Chemical string	pIC50
Nc1ncc(-c2cccc(C(=O)NCc3ccccc3)c2)nc1C(=O)NCCCNC(=O)c1ccco1	5.00 to 6.00
Nc1ncc(-c2cccc(C(=O)NCc3ccccc3)c2)nc1C(=O)N[C@@H](CCC(=O)O)C(=O)O	5.00 to 6.00
N=C(NN1CCOCC1)c1nc(-c2cccc(C(=O)NCc3ccccc3)c2)cnc1N	5.00 to 6.00

Q) Find pIC50 (Chk1 (Homo sapiens)) for the entry `Nc1ncc(-c2cccc(CN[C@H]3CCc4ccccc43)c2)nc1C(=O)NCCCO`
A) 6.00 to 7.30
